Reference source for all entries: ChEMBL document CHEMBL1145793

- target or test system: Protein farnesyltransferase (Bos taurus, UniProt P29702+P49355)
- assay remarks: Inhibition of bovine brain farnesyltransferase (FTase) farnesylation of viral K-Ras
pIC50: −log10 of the molar value.
attribute measured: pIC50

[
  {
    "molecule": "O=C1CC(c2ccccc2Br)[C@H]([N+](=O)[O-])[C@@H](c2ccc(O)cc2)N1Cc1cccnc1 (single isomer, unassigned; (+))",
    "comparator": "=",
    "recorded result": 7.12
  },
  {
    "molecule": "O=C1CC(c2cccc(Cl)c2)[C@H]([N+](=O)[O-])[C@@H](c2ccc(O)cc2)N1Cc1cccnc1 (stereo partly drawn)",
    "comparator": "=",
    "recorded result": 6.49
  },
  {
    "molecule": "COc1ccc([C@@H]2[C@@H]([N+](=O)[O-])C(c3ccccc3Br)CC(=O)N2Cc2cccnc2)cc1 (stereo partly drawn)",
    "comparator": "<",
    "recorded result": 5.92
  }
]

----------
- target or test system: Protein farnesyltransferase (Bos taurus, UniProt P29702+P49355)
- assay remarks: Inhibition of bovine brain farnesyltransferase (FTase) farnesylation of viral K-Ras
// boundary case: IC50 equal to 400 nM maps to no; strictly smaller maps to yes

[
  {
    "compound": "O=C1CC(c2cccc(Br)c2)[C@H]([N+](=O)[O-])[C@@H](c2ccc(O)cc2)N1Cc1ccc[n+]([O-])c1 (stereo not given in full)",
    "category": "no"
  },
  {
    "compound": "O=C1CC(c2cccc(Br)c2)[C@H](NO)[C@@H](c2ccc(O)cc2)N1Cc1cccnc1 (stereo not given in full)",
    "category": "no"
  },
  {
    "compound": "O=C1CC(c2ccccc2Br)[C@H]([N+](=O)[O-])[C@@H](c2ccc(O)c(CO)c2)N1Cc1cccnc1 (stereo not given in full)",
    "category": "no"
  },
  {
    "compound": "O=C1CC(c2cccc(Br)c2)[C@H]([N+](=O)[O-])[C@@H](c2ccc(O)cc2)N1Cc1ccncc1 (stereo not given in full)",
    "category": "no"
  },
  {
    "compound": "O=C1CC(c2cccc(Br)c2)[C@H]([N+](=O)[O-])[C@@H](c2ccc(O)cc2)N1Cc1cccnc1 (stereo in doubt; 1)",
    "category": "yes"
  },
  {
    "compound": "O=C1CC(c2ccccc2Br)[C@H]([N+](=O)[O-])[C@@H](c2ccc(O)c(O)c2)N1Cc1cccnc1 (single isomer, unassigned; (+))",
    "category": "yes"
  },
  {
    "compound": "O=C1CC(c2ccccc2Br)[C@H]([N+](=O)[O-])[C@@H](c2ccc(O)cc2)N1Cc1cccnc1 (single isomer, unassigned; (-))",
    "category": "no"
  },
  {
    "compound": "O=[N+]([O-])[C@H]1C(c2ccccc2Br)CCN(Cc2cccnc2)[C@@H]1c1ccc(O)c(O)c1 (single isomer, unassigned; (+))",
    "category": "yes"
  },
  {
    "compound": "O=[N+]([O-])[C@H]1C(c2ccccc2Br)CCN(Cc2cccnc2)[C@@H]1c1ccc(O)cc1 (mixture of isomers)",
    "category": "yes"
  },
  {
    "compound": "O=C1CC(c2ccccc2Br)[C@H]([N+](=O)[O-])[C@@H](c2ccc(O)c(O)c2)N1Cc1cccnc1 (mixture of isomers)",
    "category": "yes"
  },
  {
    "compound": "O=C1CC(c2cccc(Br)c2)[C@H]([N+](=O)[O-])[C@@H](c2ccc(O)cc2)N1Cc1cccnc1 (stereo in doubt)",
    "category": "no"
  },
  {
    "compound": "O=C1CC(c2ccc(Br)cc2)[C@H]([N+](=O)[O-])[C@@H](c2ccc(O)cc2)N1Cc1cccnc1 (stereo not given in full)",
    "category": "no"
  },
  {
    "compound": "N[C@H]1C(c2cccc(Br)c2)CC(=O)N(Cc2cccnc2)[C@@H]1c1ccc(O)cc1 (stereo not given in full)",
    "category": "no"
  }
]
